# % inhibition Apo pol 5' per entry
biological target: P. falciparum apicoplast DNA polymerase (Pf-apPOL) (Plasmodium falciparum); experiment: Fluorescence-based high-throughput DNA polymerase assay (molecular beacon), primary screen and dose-response; type: biochemical; conditions: DRC-2; 5'; conc 80
Reply numerically in %, unit not repeated.

Previously resolved entries follow.
CCOc1nc2cccc(C(=O)OC(C)OC(=O)OC3CCCCC3)c2n1Cc1ccc(-c2ccccc2-c2nnn[nH]2)cc1 (stereo not drawn) :: 61
C=CC1=C(C)c2cc3[nH]c(cc4nc(cc5[nH]c(cc1n2)c(C)c5CCC(=O)O)C(CCC(=O)O)=C4C)c(C)c3C=C :: 48
O=C(O)c1ccc(COc2cc([N+](=O)[O-])cc3cccnc23)cc1 :: 60
COc1ccccc1C1CC(=O)Oc2cc3c(cc21)OCO3 (stereo not drawn) :: 66
Cc1cc(C)c2c(c1)C1C=CCC1C(c1ccc(C(=O)O)cc1)N2 (stereo not drawn) :: 58

Query (molecule): Cc1ccc(CNC(=O)c2cnn3c(O)cc(CSc4ccc(Cl)cc4)nc23)cc1 ; field requested: % inhibition Apo pol 5' 68

* * *

# % inhibition ApPOL 90' listing for each entry below
target: P. falciparum apicoplast DNA polymerase (Pf-apPOL) (Plasmodium falciparum); test: Fluorescence-based high-throughput DNA polymerase assay (molecular beacon), primary screen and dose-response; assay type: biochemical; conditions: DRC-2; 90'; concentration 10
Write down the value, and be sure its unit follows.

Answered examples (3):
Cc1ccc(C)n1-c1ccc(C(=O)NNC(=O)c2ccc3nccnc3c2)cc1 :: 18%
O=C(Cc1cc(=O)[nH]c(SCc2ccccc2)n1)Nc1ccc2c(c1)OCO2 :: 27%
CCOc1ccc2cc(C3=NN(C(=O)CCC(=O)O)C(c4ccc(C)cc4)C3)c(=O)[nH]c2c1 (stereo not shown) :: 23%

Which measured % inhibition ApPOL 90' value corresponds to N#CC(=NNc1cc(C(F)(F)F)cc(C(F)(F)F)c1)C(=O)c1ccco1 ? 32%

Which measured % inhibition ApPOL 90' value corresponds to CN(C)C1C(c2ccccc2)=C(c2ccccc2)SC(c2ccccc2)C1[N+](=O)[O-] (stereo not shown) ? 38%

Could you tell me which % inhibition ApPOL 90' is on file for COc1ccc(-c2c(C(F)(F)F)nn3c(=O)cc(-c4cccc([N+](=O)[O-])c4)[nH]c23)cc1 ? 31%

Recorded % inhibition ApPOL 90' of O=C1N/C(=N/c2ccccc2Cl)S/C1=C/c1ccc([N+](=O)[O-])o1 , please. 42%

Which value of % inhibition ApPOL 90' has been reported for CCOc1nc2cccc(C(=O)OC(C)OC(=O)OC3CCCCC3)c2n1Cc1ccc(-c2ccccc2-c2nnn[nH]2)cc1 (stereo not shown) in the records? 59%

Record request: % inhibition ApPOL 90' value, item Nc1c(S(=O)(=O)O)cc(Nc2ccccc2)c2c1C(=O)c1ccccc1C2=O 39%

Name the recorded % inhibition ApPOL 90' for COc1cc(Cl)c(C)cc1NC(=O)Cn1ccc2c(=O)[nH]ccc21 . 45%

Field request: % inhibition ApPOL 90' | item: COc1ccc(NC(=O)Cn2nc3c(cc2=O)CCC3)cc1Cl 71%

// query % inhibition ApPOL 90' value for entry NC(=O)c1cc[n+](CC2=C(C(=O)[O-])N3C(=O)[C@@H](NC(=O)[C@@H](c4ccccc4)S(=O)(=O)[O-])[C@H]3SC2)cc1.[Na+] 46%

What value of % inhibition ApPOL 90' has been reported for the following compound? Cl.NC(CO)C(=O)NNCc1ccc(O)c(O)c1O (stereo not shown) 45%

Entry CC(=O)Nc1cc(C(=O)NC(C)C)c2ccc(C)nc2c1 has what % inhibition ApPOL 90'? 31%

Given the entry COc1cc(NC(=O)c2ccccc2)c(OC)cc1NC(=O)Cc1cccs1 , report its measured % inhibition ApPOL 90'. 54%

Quick one: % inhibition ApPOL 90' for Cc1ccc(-n2nnc(C(=O)O)c2-c2ccccn2)c(F)c1 ? 22%

* * *

target: P. falciparum apicoplast DNA polymerase (Pf-apPOL) (Plasmodium falciparum, UniProt Q8ILY1); test: Fluorescence-based high-throughput DNA polymerase assay (molecular beacon), primary screen and dose-response; type: biochemical; conditions: DRC-1; read at 180'; concentration 2.5
Sequence (Q8ILY1 entry or part of it): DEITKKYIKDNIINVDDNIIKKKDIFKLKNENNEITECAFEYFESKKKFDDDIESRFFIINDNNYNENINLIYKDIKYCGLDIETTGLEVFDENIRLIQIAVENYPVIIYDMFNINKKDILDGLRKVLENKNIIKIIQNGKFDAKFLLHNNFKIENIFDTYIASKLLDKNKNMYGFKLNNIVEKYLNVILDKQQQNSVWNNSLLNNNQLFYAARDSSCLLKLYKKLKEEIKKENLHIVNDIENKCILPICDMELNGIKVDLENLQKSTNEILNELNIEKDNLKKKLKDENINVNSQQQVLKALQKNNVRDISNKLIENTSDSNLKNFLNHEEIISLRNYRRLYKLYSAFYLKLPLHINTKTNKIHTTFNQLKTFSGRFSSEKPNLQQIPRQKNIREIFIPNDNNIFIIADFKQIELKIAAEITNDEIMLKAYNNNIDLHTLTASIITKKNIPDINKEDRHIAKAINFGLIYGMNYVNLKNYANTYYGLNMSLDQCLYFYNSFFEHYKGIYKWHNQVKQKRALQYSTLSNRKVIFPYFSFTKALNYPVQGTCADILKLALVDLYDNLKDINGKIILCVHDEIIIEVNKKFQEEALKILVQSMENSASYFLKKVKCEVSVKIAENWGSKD
measurement name: % inhibition apPOL 180' 2.5 (%)
Number only, in %; omit the unit.

Nc1cc(Oc2ccc(O)c(N)c2)ccc1O [KU0034728] :: 2.338
Cn1nc(-c2nnc(-c3ccccc3F)o2)c2c1CCN(C(=O)c1ccccc1Cl)C2 [Molecule 34] :: 17
Cc1ccc(N2CCC(NC(=O)Cc3cccs3)C2=O)cc1C (stereo not shown) [Molecule 57, O=C(NC1CCN(C1=O)c1ccc(c(c1)C)C)Cc1cccs1] :: -1.073

Now, please, on to the next compound.
Request the reported % inhibition apPOL 180' 2.5 associated with COc1ccccc1CC(=O)N1CCc2c(nc3cc(-c4ccccc4Cl)[nH]n3c2=O)C1 [Molecule 49] -9

* * *

Recorded % inhibition Apo pol 10' 20, one value per entry.
molecular target: UniProt:Q8ILY1; assay: Fluorescence-based high-throughput DNA polymerase assay (molecular beacon), primary screen and dose-response; format: biochemical; conditions: DRC-1; read at 10'; concentration 20
The figure you give is taken to be in %; do not add the unit.

Sample records with % inhibition Apo pol 10' 20:
CCCc1ccc(Oc2coc3cc(OC)ccc3c2=O)cc1 :: 12.8685
Cc1cccc(-c2noc(C(=O)NNC(=O)C(Cl)(Cl)Cl)n2)c1 :: 23.1394
CC(=O)Nc1cc(C(=O)c2cccs2)nn(-c2ccc(Cl)cc2)c1=O :: 30.1491

// next entry
Give its % inhibition Apo pol 10' 20 value. Item: CC(C)CC(C(=O)O)N1C(=O)C2C3C=CC(C2C1=O)C1C(=O)N(C(CC(C)C)C(=O)O)C(=O)C31 (stereo not shown) 21.694

* * *

Entries and their % inhibition apPOL 180'
molecular target: UniProtKB Q8ILY1; assay: Fluorescence-based high-throughput DNA polymerase assay (molecular beacon), primary screen and dose-response; assay type: biochemical; conditions: DRC-1; 180'; conc 40

Below, each entry is followed by its recorded % inhibition apPOL 180' result.
CCOc1nc2cccc(C(=O)OC(C)OC(=O)OC3CCCCC3)c2n1Cc1ccc(-c2ccccc2-c2nnn[nH]2)cc1 (stereo not shown) :: 92.7393%
COc1ccccc1C1CC(=O)Oc2cc3c(cc21)OCO3 (stereo not shown) :: 74.6782%
N#CC(C#N)=C1SCN(c2cccc(Cl)c2)CS1 :: 85.2905%
O=c1nc(/C=C/c2ccc(Br)cc2)oc2ccccc12 :: 80.0065%
Cc1ccc(NC(=O)Cn2ccc3c(=O)[nH]ccc32)c(C)c1 :: 59.9504%

For the compound Cc1ccc(CNC(=O)c2cnn3c(O)cc(CSc4ccc(Cl)cc4)nc23)cc1 , what % inhibition apPOL 180' is on record? 89.0926%

Requested read-out: % inhibition apPOL 180'. Entry: O=C(O)c1ccc(COc2cc([N+](=O)[O-])cc3cccnc23)cc1 74.9259%

Which % inhibition apPOL 180' is listed for Cc1ccccc1NC(=O)Cn1ccc2c(=O)[nH]ccc21 [Molecule 50, O=C(Cn1ccc2c1cc[nH]c2=O)Nc1ccc(cc1)C] ? 85.8042%

Fill blank: measured % inhibition apPOL 180' of the compound O=C1NN(c2ccc(Cl)c(Cl)c2)C(=O)/C1=C/c1ccc(-c2ccc3c(c2)C(=O)OC3)o1 is ____. 79.8129%

Query: % inhibition apPOL 180'; subject: CC(C)CCNC(=O)c1cnn2c(O)cc(CSc3ccc(Cl)cc3)nc12 85.4085%

* * *

biological target: UniProt Q8ILY1; test: Fluorescence-based high-throughput DNA polymerase assay (molecular beacon), primary screen and dose-response; format: biochemical; settings: DRC-2; 90'; concentration 10
Label rule, in plain words: % inhibition ApPOL 90' of 40% and up is TRUE, under 40% is FALSE.

Previously resolved entries follow.
CCCCCCCCCCCC1SCC(C(=O)O)N1C(C)=O (centres unmarked) :: FALSE
CC(C)(C)OC(=O)COc1ccc2cc(-c3ccccc3)c(=O)oc2c1 :: FALSE
Cc1ccc(NC(=O)C2CCN(C(=O)c3cc4ccsc4[nH]3)CC2)c(Br)c1 :: TRUE

% inhibition ApPOL 90' >= 40% for CCCc1ccc(Oc2coc3cc(OC)ccc3c2=O)cc1 ? FALSE

API: above_or_equal(metric=% inhibition ApPOL 90', cutoff=40%) for item Cc1cc(C)c2c(O)nc(SCC(=O)c3ccc(O)c(O)c3)nc2n1 TRUE

Reported % inhibition ApPOL 90' reaches at least 40% for CCOc1cccc2cc(C(=O)Nc3nnc(-c4ccno4)o3)oc12 ? TRUE

Does the reported % inhibition ApPOL 90' for Cc1cccc2c(C(=O)NC(C)C)cc(N(C)C)nc12 fall at or above the 40% mark? FALSE

Could you tell me if the measured % inhibition ApPOL 90' of O=C(Nc1c2c(nn1-c1ccc(Oc3ccccc3)cc1)CSC2)c1ccco1 reaches 40% or more? TRUE
